Dear all, I have gathered published IC50 values for UniProtKB Q9UHD2; the list follows.
Property Name: IC50

compound="O=C(NCCCn1ccc2cnc(Nc3ccc(N4CCOCC4)nc3)nc21)C1CCOC1 (centres unmarked)" assay_target="UniProtKB Q9UHD2" measured_result="< 0.1 µM"
compound=CC(=O)NCCNC(=O)c1ccc(-c2cc3nccc(-c4ccc(OC5CCOCC5)c(C#N)c4)c3o2)cc1 assay_target="UniProtKB Q9UHD2" measured_result="< 0.3 µM"
compound=N#Cc1cc(-c2ccnc3cc(-c4ccc(C(=O)N5CCNCC5)cc4)oc23)ccc1OCC1CC1 assay_target="UniProtKB Q9UHD2" measured_result="< 0.3 µM"
compound=COc1cc(-c2cc3nccc(-c4ccc(OC5CCOCC5)c(C#N)c4)c3o2)ccc1C(=O)N[C@@H]1CCCNC1 assay_target="UniProtKB Q9UHD2" measured_result="< 0.3 µM"
compound=Cn1cc(-c2cnc3[nH]cc(-c4cn(Cc5ccccc5F)nn4)c3c2)cn1 assay_target="UniProtKB Q9UHD2" measured_result="0.0005 to 1 µM"
compound=CN1CCN(c2cnc3[nH]cc(-c4ccc(OC5CCOCC5)c(C#N)c4)c3c2)CC1 assay_target="UniProtKB Q9UHD2" measured_result="0.3 to 3 µM"
compound=Nc1ccc(-c2ccnc(N3CCOCC3)n2)c2c1C(=O)NC2 assay_target="UniProtKB Q9UHD2" measured_result="> 10 µM"
compound=CC(=O)Nc1cccc(Nc2ncc3ccn(CCCNC(=O)C4CCC4)c3n2)c1 assay_target="UniProtKB Q9UHD2" measured_result="< 0.1 µM"
compound=CCN(C)C(=O)c1ccc(-c2cc3nccc(-c4ccc(OC5CCOCC5)c(C#N)c4)c3o2)cc1 assay_target="UniProtKB Q9UHD2" measured_result="< 0.3 µM"
compound=O=C(NC1CCCC1)N1CC=C(c2c[nH]c3ncc(-c4ccc(CN5CCOCC5)s4)nc23)CC1 assay_target="UniProtKB Q9UHD2" measured_result="0.066 µM"
compound=COc1cc(-c2cc3nccc(-c4ccc(OC5CCOCC5)c(C#N)c4)c3o2)ccc1C(=O)N1CCC(O)CC1 assay_target="UniProtKB Q9UHD2" measured_result="< 0.3 µM"
compound=Cn1cc(-c2cnc3[nH]cc(-c4cn(CCN5CCOCC5)nn4)c3c2)cn1 assay_target="UniProtKB Q9UHD2" measured_result="0.0005 to 1 µM"
compound="COc1cc(-c2cc3nccc(-c4ccc(OC5CCOC5)c(C#N)c4)c3o2)ccc1C(=O)N1CCNCC1 (centres unmarked)" assay_target="UniProtKB Q9UHD2" measured_result="< 0.3 µM"
compound=O=C(NCCCn1ccc2cnc(Nc3cccc(CN4CCCC4)c3)nc21)C1CCC1 assay_target="UniProtKB Q9UHD2" measured_result="< 0.1 µM"
compound=N#Cc1cc(-c2ccnc3cc(-c4ccc(C(=O)N5CCNC(=O)CC5)cc4)oc23)ccc1OC1CCOCC1 assay_target="UniProtKB Q9UHD2" measured_result="< 0.3 µM"
compound=COc1cc(Nc2cc(-c3ccc(OC4CCOCC4)c(C#N)c3)ncn2)ncc1C1CCN(C)CC1 assay_target="UniProtKB Q9UHD2" measured_result="< 0.1 µM"
compound="COc1nc(Nc2cc(-c3ccc(OC4CCN(C(=O)[C@@H](C)O)CC4(F)F)c(C#N)c3)ncn2)ccc1C1CCN(C2COC2)CC1 (some centres unmarked)" assay_target="UniProtKB Q9UHD2" measured_result="< 0.1 µM"
